// data source = PubChem BioAssay (NCI)

Kindly supply the reported growth inhibition values for the records listed here.
- assay: NCI Yeast Anticancer Drug Screen. Data for the sgs1 mgt1 strain (AID 161);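 note: 0% = growth of cultures given vehicle only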
- experimental-setup: S. cerevisiae sgs1 mgt1 strain, at 50.0 µM, stronger effect = higher value
About 79,000 compounds went through this panel and 15% of them were active in at least one assay; those are over-represented in the sample as a whole.
Just the number please, in %, no unit attached.

# query: growth inhibition of entry O=C1OCc2nc3c(c(-c4ccccc4C(F)(F)F)c21)C(=O)OC3
-59.3

# query: growth inhibition of entry CN(C(=S)NNC(=O)C1CCC(=O)N1)c1ccccc1 (stereo unspecified)
3.3

# query: growth inhibition of entry CCCOC(=O)c1ccc(C(C)C)cc1
-5.3

# query: growth inhibition of entry NNC(=O)C(CSC(c1ccccc1)(c1ccccc1)c1ccccc1)NC(=O)OCc1ccccc1 (stereo unspecified)
94.8

# query: growth inhibition of entry CC(NC(CC12CC3CC(CC(C3)C1)C2)C(N)=O)c1ccccc1 (stereo unspecified)
-2.3

# query: growth inhibition of entry COC(=O)c1sc(=O)n(-c2ccccc2)c1SCc1ccccc1
60

* * *

Kindly supply the reported growth inhibition values for the records listed here.
- assay: NCI Yeast Anticancer Drug Screen. Data for the bub3 strain (AID 167)
- experimental-setup: S. cerevisiae bub3 mutant strain, at 50.0 µM, stronger effect = higher value
The panel holds about 79,000 compounds, 15% with a hit somewhere; the sample as a whole holds those more often.
Just the number please, in %, no unit attached.

# query: growth inhibition of entry c1c[nH]c(C2Nc3ccccc3CO2)c1 (stereo not given)
1.3

# query: growth inhibition of entry Nc1nc2nn(-c3ccc(C(=O)NC(CCC(=O)O)C(=O)O)cc3)nc2c(=O)[nH]1 (stereo not given)
9.05

# query: growth inhibition of entry c1ccc(CNC2Cc3ccccc3C2)cc1
-11.7

# query: growth inhibition of entry COC(=O)C(O)CC1=CC[C@@H]2CC=C[C@H]12 (stereo not given in full)
27.5

# query: growth inhibition of entry O=C(Nc1ccccc1F)Oc1ccc(Cl)cc1Cl
19.4

# query: growth inhibition of entry O=C(O)/C=C/c1ccc(C(NC(=O)N2C(=O)C=CC2=O)NC(=O)N2C(=O)C=CC2=O)cc1
13.3

# query: growth inhibition of entry CCCC(CCC)C(=O)[O-].CCCC(CCC)C(=O)[O-].CCCC(CCC)C(=O)[O-].CCCC(CCC)C(=O)[O-].[Cu+2].[Cu+2]
20

# query: growth inhibition of entry CCCCc1c2c(nc3c1CCC/C3=C\c1ccccc1)C(=O)CCC2
30.6

# query: growth inhibition of entry Cc1ccc(C)c(NC(=S)Nc2ccccc2)c1
54

# query: growth inhibition of entry COC(=O)C1=C(C)NC(C)=C(C(=O)OC)C1c1cc2ccccc2n2nnnc12
7.5

# query: growth inhibition of entry Cc1ccc(-c2ccno2)cc1
-8.3

# query: growth inhibition of entry O=C(Nc1c(O)[nH][nH]c1=O)c1ccccc1
-15.7

# query: growth inhibition of entry CC1(SCC(N)C(=O)O)CC(=O)NC1=O (stereo not given)
-39.2

# query: growth inhibition of entry COc1ccc2c(c1)OC(C)(C)C(c1ccccc1)=C2c1ccc(OCCN2CCCC2)cc1
99.3

# query: growth inhibition of entry CN1C(c2ccccc2)NC(=O)C12CCN(CCCC(=O)c1ccccc1)CC2 (stereo not given)
17.9

# query: growth inhibition of entry Cc1c(Cl)cc([N+](=O)[O-])cc1Cl
-3.45

# query: growth inhibition of entry CC(=O)c1cccc(F)c1C(C)c1ccc2ccccc2c1 (stereo not given)
15.4

# query: growth inhibition of entry c1ccc(CCCCCCc2ccccc2)cc1
-14.6

# query: growth inhibition of entry CN(C=C(C#N)C#N)c1ccccc1
9.05

# query: growth inhibition of entry NN1CC(=O)N(c2ccccc2)CC1=O
-7.65

# query: growth inhibition of entry N#CCCP(=O)(O)CO
3.9

# query: growth inhibition of entry C=CCOC(=O)Cc1ccccc1C(=O)OCC=C
21.4

# query: growth inhibition of entry Cc1noc2cccc(O)c12
1.25

# query: growth inhibition of entry CSc1nc2c(c(=O)n1C)N=C(c1ccc(Cl)cc1)CC(c1ccccc1)N2 (stereo not given)
-11.6

# query: growth inhibition of entry [N-]=[N+]=NC1=NNC2(C(=O)N1)c1ccccc1-c1ccccc12
-30.1
